Listed compounds paired with reported Activity on Rhinovirus Type 1A MTC
System: human embryo lung (MRC-5) cells
protocol.summary: Cytotoxicity (CC50 or MTC) in uninfected MRC-5 cells
condition.label: unit not given

These recorded examples may help you get a feel for the data.
{"columns": ["molecular.string", "measure.name", "result"],
 "data": [
  ["CCON=Cc1ccc(OCCCC2CCN(c3ccc(C)nn3)CC2)cc1", "Activity on Rhinovirus Type 1A MTC", ">1"],
  ["CCON=Cc1cccc(OCCC2CCN(c3ccc(Cl)nn3)CC2)c1", "Activity on Rhinovirus Type 1A MTC", ">1"],
  ["CCON=Cc1ccc(OCCC2CCN(c3ccc(CO)nn3)CC2)cc1", "Activity on Rhinovirus Type 1A MTC", ">1"]
]}

Next compound, please.
Qu. Record CCOCCOCCON=Cc1ccc(OCCC2CCN(c3ccc(Cl)nn3)CC2)cc1 : what is its Activity on Rhinovirus Type 1A MTC with human embryo lung (MRC-5) cells?
Ans. >50.00

* * *

Tested on: human embryo lung (MRC-5) cells
protocol.summary: Cytotoxicity (CC50 or MTC) in uninfected MRC-5 cells
condition.label: unit not given
Listed molecules paired with reported Activity on Rhinovirus Type 1A MTC

These recorded examples may help you get a feel for the data.
{"columns": ["molecule", "measured.target", "Activity on Rhinovirus Type 1A MTC"],
 "data": [
  ["CCON=Cc1ccc(OCCC2CCN(c3ccc(Cl)nn3)CC2)cc1", "human embryo lung (MRC-5) cells", ">0.1"],
  ["CCON=Cc1ccc(OCC2CCCN(c3ccc(Cl)nn3)C2)cc1 (stereo not drawn)", "human embryo lung (MRC-5) cells", ">1"],
  ["CCON=Cc1ccc(OCCN2CCN(c3ccc(Cl)nn3)CC2)cc1", "human embryo lung (MRC-5) cells", ">1"],
  ["CCON=Cc1cc(C)c(OCCCc2cc(C3CC3)no2)c(C)c1", "human embryo lung (MRC-5) cells", ">1"],
  ["CCON=Cc1ccc(OC2CCN(c3ccc(Cl)nn3)CC2)cc1", "human embryo lung (MRC-5) cells", ">10"]
]}

Qu. Using the record for CCON=Cc1ccc(OCCN2CCN(c3ccc(C)nn3)CC2)cc1 , report its Activity on Rhinovirus Type 1A MTC.
Ans. >1

Qu. Using the record for CON=Cc1cccc(OCCN2CCN(c3ccc(Cl)nn3)CC2)c1 , report its Activity on Rhinovirus Type 1A MTC.
Ans. >1

Qu. Using the record for CON=Cc1ccc(OCCCC2CCN(c3ccc(Cl)nn3)CC2)cc1 , report its Activity on Rhinovirus Type 1A MTC.
Ans. >1

Qu. Using the record for CCON=Cc1ccc(OCCC2CCN(c3ccc(Cl)nn3)CC2)c(C)c1 , report its Activity on Rhinovirus Type 1A MTC.
Ans. >1

Qu. Using the record for CON=Cc1ccc(OCCC2CCN(c3ccc(Cl)nn3)CC2)c(OC)c1 , report its Activity on Rhinovirus Type 1A MTC.
Ans. >1

Qu. Using the record for C=CCON=Cc1cccc(OCCC2CCN(c3ccc(C)nn3)CC2)c1 , report its Activity on Rhinovirus Type 1A MTC.
Ans. >1

Qu. Using the record for C=CCON=Cc1ccc(OCC2CCN(c3ccc(Cl)nn3)CC2)cc1 , report its Activity on Rhinovirus Type 1A MTC.
Ans. >1

* * *

Listed molecules paired with reported Activity on Rhinovirus Type 2 SI
Test system: HRV type 2
protocol.summary: Inhibition of viral cytopathic effect (CPE), visual scoring or neutral red, HRV type 2 in KB cells
Format: cell-based, human rhinovirus
condition.label: selectivity index = CC50 or MTC divided by EC50; HRV type 2, KB cells

These recorded examples may help you get a feel for the data.
{"columns": ["molecule", "result"],
 "data": [
  ["CCON=C(C)c1cc(OC)c(OCCC2CCN(c3ccc(Cl)nn3)CC2)c(OC)c1", ">500"],
  ["C=CCON=Cc1cc(O)cc(OCCC2CCN(c3ccc(Cl)nn3)CC2)c1", ">3"],
  ["CCON=C(C)c1ccc(OCCC2CCN(c3ccc(C)nn3)CC2)cc1", ">2"]
]}

Qu. Using the record for CON=Cc1ccc(OCCC2CCN(c3ccc(C)nn3)CC2)cc1 , report its Activity on Rhinovirus Type 2 SI.
Ans. >7

Qu. Using the record for CCON=Cc1ccc(OCCN2CCN(c3ccc(Cl)nn3)CC2)cc1 , report its Activity on Rhinovirus Type 2 SI.
Ans. >10

Qu. Using the record for CON=Cc1cc(C)c(OCCCc2cc(C)no2)c(C)c1 , report its Activity on Rhinovirus Type 2 SI.
Ans. >400
